# measured-on: Orai1/STIM1 (Homo sapiens)
# Construct: c-myc (C)
# experimental-protocol: Fluorescence-based assay of store-operated calcium entry in Orai1/STIM1 stable cells
# assay-setup: HEK-293 cells stably expressing human STIM1 and Orai1; inhibition of Peak-Basal fluorescence signal after calcium addition; read-out: Orai1/STIM1 (IC50, μmol)
Would you mind telling me the reported IC50 of each entry?

Ask: Suppose we examine the molecule Cn1nc(C(F)(F)F)cc1-c1cnc(NCc2c(F)cccc2F)cc1F [Compound 76] ; what IC50 value has been reported?
Reply: > 1200 nM

Ask: Return reported IC50; argument: Cn1nc(C(F)(F)F)cc1-c1ccc(NCc2c(F)cncc2F)nc1 [Compound 84]
Reply: < 600 nM

Ask: // lookup IC50 for COc1cc(F)c(CNc2ccc(-n3nc(C(F)(F)F)cc3C)cn2)c(F)c1 [Compound 120]
Reply: 600 to 1200 nM

Ask: Look up IC50: Cc1cc2c(cc1-c1ccc(NCc3c(F)cccc3F)nc1)CCC2 [Compound 17]
Reply: 600 to 1200 nM

Ask: Query: IC50; subject: Cc1cccc(F)c1CNc1ccc(-c2cc(C(F)(F)F)nn2C)cn1 [Compound 86]
Reply: < 600 nM

Ask: What does the data say about its IC50? Entry: Cn1nc(C(F)(F)F)cc1-c1ccc(NC(=O)c2ccccc2F)nc1 [Compound 72]
Reply: < 600 nM

Ask: // returns reported IC50 for input Fc1cccc(F)c1CNc1ncc(Oc2ccccc2C(F)(F)F)cn1 [Compound 126]
Reply: < 600 nM

Ask: Entry Cc1cc2c(cc1-c1ccc(NCc3ccccc3Cl)nc1)OC(F)(F)O2 [Compound 20] : reported IC50 = ?
Reply: > 1200 nM

Ask: Quick one: IC50 for Fc1ccc(CNc2ccc(-c3cc4c(cc3Cl)OC(F)(F)O4)cn2)c(Cl)c1 [Compound 13] ?
Reply: > 1200 nM

###

# measured-on: Orai1/STIM1 (Homo sapiens, UniProt Q96D31)
# Construct: c-myc (C)
# Sequence (Q96D31 whole entry): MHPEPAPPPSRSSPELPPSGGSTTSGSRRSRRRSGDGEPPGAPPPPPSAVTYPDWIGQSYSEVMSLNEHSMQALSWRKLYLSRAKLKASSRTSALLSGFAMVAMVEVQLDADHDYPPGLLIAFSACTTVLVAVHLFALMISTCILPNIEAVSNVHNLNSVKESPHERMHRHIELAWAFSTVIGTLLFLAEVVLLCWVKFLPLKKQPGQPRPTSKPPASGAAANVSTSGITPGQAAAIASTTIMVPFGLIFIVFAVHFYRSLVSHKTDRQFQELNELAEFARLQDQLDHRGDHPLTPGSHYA
# experimental-protocol: Fluorescence-based assay of store-operated calcium entry in Orai1/STIM1 stable cells
# assay-setup: HEK-293 cells stably expressing human STIM1 and Orai1; inhibition of Peak-Basal fluorescence signal after calcium addition; read-out: Orai1/STIM1 (IC50, μmol)
pIC50: −log10 of the molar value.
Could you please report measured pIC50 for the items listed next?

Ask: Item under review: Cn1nc(C(F)(F)F)cc1-c1ccc(NCc2c(F)cc(F)cc2F)nc1 . Reported pIC50?
Reply: > 6.22

Ask: Look up pIC50: Cn1nc(C(F)(F)F)cc1-c1ccc(NCc2ccccc2F)nc1N
Reply: > 6.22

Ask: Tell me the measured pIC50 of Fc1cccc(F)c1CNc1ccc(Oc2ccccc2C(F)(F)F)cn1 , please.
Reply: > 6.22

Ask: Dear colleague, I am looking for the recorded pIC50 of the following compound: Cn1nc(C(F)(F)F)cc1-c1ccc(NCc2c(F)ccc(F)c2F)nc1
Reply: > 6.22

Ask: Look at this compound and give its reported pIC50. COc1cc(C)c(-c2cnc(NCc3c(F)cccc3F)nc2)cn1
Reply: > 6.22

Ask: Need pIC50 of Fc1cc(F)c(CNc2ccc(-n3nc(C(F)(F)F)cc3C(F)(F)F)cn2)c(F)c1 , thanks.
Reply: > 6.22

Ask: Would you mind telling me what pIC50 value was observed for Cc1cc(Cl)ncc1-c1cnc(NCc2c(F)cc(Cl)cc2F)nc1 ?
Reply: > 6.22

Ask: Any idea what its pIC50 is? The compound is Cc1cc(C(F)(F)F)nn1-c1ccc(NCc2c(F)cncc2F)nc1
Reply: 5.92 to 6.22

Ask: Recorded pIC50 for Fc1cccc(F)c1CNc1ccc(-c2cc3c(cc2Cl)OC(F)(F)O3)cn1 , please?
Reply: 5.92 to 6.22

Ask: What value of pIC50 has been reported for the following compound? Cc1nc(C(F)(F)F)cn1-c1ccc(NCc2c(F)cc(F)cc2F)nc1
Reply: 5.92 to 6.22

Ask: Reported pIC50 for COc1ccccc1CNc1ccc(-c2cc3c(cc2Cl)OC(F)(F)O3)cn1 : what is it?
Reply: < 5.92

Ask: What does the data say about its pIC50? Entry: Cc1ccccc1CNc1ccc(-c2cc3c(cc2C)OC(F)(F)O3)cn1
Reply: > 6.22

Ask: Return reported pIC50; argument: Cn1nc(C(F)(F)F)cc1-c1cnc(NCc2ccccc2F)nc1
Reply: > 6.22

Ask: So what does the record say about pIC50 for Fc1cccc(CNc2ccc(-c3cc4c(cc3Cl)OC(F)(F)O4)cn2)c1Cl ?
Reply: < 5.92

Ask: Please report the recorded pIC50 for Cn1nc(C(F)(F)F)cc1-c1ccc(NC(=O)c2c(F)cccc2F)nc1 .
Reply: 5.92 to 6.22

Ask: Recorded pIC50 for Cc1nc(C(F)(F)F)cn1-c1ccc(NCc2c(F)cccc2F)nc1 , please?
Reply: > 6.22

Ask: Can you share its pIC50? I mean this compound: Fc1cccc(F)c1CNc1ccc(-c2cc3c(cc2Cl)OCCO3)cn1
Reply: < 5.92

Ask: Can you share its pIC50? I mean this compound: Cc1cc2c(cc1-c1ccc(NCc3c(F)cccc3F)nc1)OC(F)(F)O2
Reply: 5.92 to 6.22

Ask: Which pIC50 is listed for Cc1cc2c(cc1-c1ccc(NCc3ccccc3F)nc1)OC(F)(F)O2 ?
Reply: > 6.22

Ask: Param item = Cc1cc2c(cc1-c1cnc(OCc3c(F)cccc3Cl)nc1)OC(F)(F)O2 ; retrieve measured pIC50.
Reply: < 5.92

Ask: Value lookup for pIC50; key = COc1cc(F)c(CNc2ncc(-c3cc4c(cc3C)OC(F)(F)O4)cn2)c(F)c1
Reply: > 6.22

Ask: Form field: reported pIC50 of Cc1cc2c(cc1-c1ccc(NCc3c(F)cccc3F)nc1)OCCO2
Reply: 5.92 to 6.22

Ask: Name the recorded pIC50 for Fc1cccc(F)c1CNc1ccc(-n2nc(C(F)(F)F)cc2C(F)(F)F)cn1 .
Reply: > 6.22

Ask: Entry Fc1cccc(CNc2ccc(-c3cc4c(cc3Cl)OC(F)(F)O4)cn2)c1 : reported pIC50 = ?
Reply: 5.92 to 6.22

###

# Test system: RBL-2H3 cells
# experimental-protocol: Fluorescence-based assay of store-operated calcium entry in RBL-2H3 cells
# Type: cell-based, rat
# assay-setup: Rattus norvegicus, thapsigargin, inhibition of Upslope of fluorescence after calcium addition, read-out: RBL-2H3 (IC50, μmol)
# Protocol: Fluorescence-based assays are used for screening the compounds described herein, such as compounds of Formulas (I), (IA), (II), (IIA), (III), (IIIA), (IV), (IVA), (V), (VA), (VI), (VIA), (VII), (VIIA), (VIII), (VIIIA), (IX), (IXA), (X), (XI), (XIA), (XII), or (XIIA) which modulate intracellular calcium. B. Fluorescence-Based Assay of Store-Operated Calcium Entry in RBL-2H3 Cells. RBL-2H3 cells are obtained from ATCC and maintained in complete medium with 10% FBS at 37° C./6% CO2. […]
pIC50: −log10 of the molar value.
parameter: pIC50

Ask: Consider the compound shown here: Cn1nc(C(F)(F)F)cc1-c1ccc(NC(=O)c2ccccc2F)nc1 [Compound 72] What is its recorded pIC50?
Reply: > 6.22

Ask: Can you share its pIC50? I mean this compound: Cc1cc2c(cc1-c1ccc(NCc3c(F)ccc(F)c3F)nc1)OC(F)(F)O2 [Compound 25]
Reply: > 6.22

Ask: Reported pIC50 for Cn1nc(C(F)(F)F)cc1-c1ccc(OCc2c(F)cccc2F)nc1 [Compound 67] : what is it?
Reply: 5.92 to 6.22

Ask: Item Fc1cc(F)c(CNc2ccc(Oc3cc(C(F)(F)F)ccc3C(F)(F)F)cn2)c(F)c1 [Compound 140] has what recorded pIC50?
Reply: 5.92 to 6.22

Ask: For the compound FC1(F)Oc2cc(Cl)c(-c3ccc(NCc4ccccc4C(F)(F)F)nc3)cc2O1 [Compound 12] , what pIC50 is on record?
Reply: > 6.22

Ask: Fill in: pIC50 of Cc1cc2c(cc1-c1cnc(NCc3c(F)cccc3F)nc1)OC(F)(F)O2 [Compound 32] is ___
Reply: > 6.22

Ask: Tell me the measured pIC50 of CCc1ccccc1Oc1ccc(NCc2c(F)cc(F)cc2F)nc1 [Compound 136] , please.
Reply: < 5.92

Ask: Tell me the measured pIC50 of Cc1cc2c(cc1-c1cnc(OCc3c(F)cccc3F)nc1)OC(F)(F)O2 [Compound 62] , please.
Reply: 5.92 to 6.22

Ask: Entry under review: COc1cc(F)c(CNc2ccc(-n3nc(C(F)(F)F)cc3C)cn2)c(F)c1 [Compound 120] . Reported pIC50?
Reply: > 6.22

Ask: Give its pIC50 value. Item: COc1ccccc1CNc1ccc(-c2cc3c(cc2Cl)OC(F)(F)O3)cn1 [Compound 15]
Reply: > 6.22

Ask: For the compound shown here, Fc1cccc(F)c1CNc1ccc(Oc2ccccc2C(F)(F)F)cn1 [Compound 135] , give the reported pIC50.
Reply: > 6.22

Ask: Recorded pIC50 of CCc1ccccc1Oc1ccc(NCc2c(F)cccc2F)nc1 [Compound 137] , please.
Reply: < 5.92

Ask: Reported pIC50 for Cc1c(F)cccc1CNc1ccc(-n2nc(C(F)(F)F)cc2C)cn1 [Compound 122] : what is it?
Reply: > 6.22

Ask: I have this compound here, Cc1cc(C(F)(F)F)nn1-c1ccc(NCc2c(F)cccc2F)nc1 [Compound 116] , and I need its recorded pIC50.
Reply: > 6.22

Ask: Field request: pIC50 | item: Cn1nc(C(F)(F)F)cc1-c1ncc(NCc2c(F)cccc2F)cc1F [Compound 91]
Reply: > 6.22

Ask: Form field: reported pIC50 of Fc1cc(F)c(CNc2ccc(Oc3ccccc3C(F)(F)F)cn2)c(F)c1 [Compound 134]
Reply: > 6.22

Ask: Find the recorded pIC50 belonging to Cn1nc(C(F)(F)F)cc1-c1ccc(NCc2ccc(F)cc2F)nc1 [Compound 80] and report it.
Reply: > 6.22

Ask: I would be grateful if you could share the reported pIC50 for Fc1cccc(CNc2ccc(-c3cc4c(cc3Cl)OC(F)(F)O4)cn2)c1Cl [Compound 8] .
Reply: > 6.22
